Test system: cytochrome c
Type: cell-based, mouse
Catalogue of cyt c (composite Z-score vs DMSO) readings, one per entry.
Just the number, please.

Consider the following illustrative entries.
molecule	cyt c (composite Z-score vs DMSO)
NCCc1c[nH]cn1	0.016
COc1cc2nc(N3CCN(C(=O)C4CCCO4)CC3)nc(N)c2cc1OC (stereo not drawn)	−0.258

Okay, now this molecule:
Incoming: What value of cyt c (composite Z-score vs DMSO) has been reported for the following molecule? Cc1cnc(C(=O)NCCc2ccc(S(=O)(=O)NC(=O)NC3CCCCC3)cc2)cn1 [glipizide]
Outgoing: 0.287

###

System: cytochrome c
Type: cell-based, mouse
Measured cyt c (composite Z-score), listed per entry.
Respond with the number and no other words.

molecule	outcome-measure	measured-result
O=C(/C=C/c1ccc(O)cc1)c1ccc(O)cc1O [isoliquiritigenin]	cyt c (composite Z-score)	0.089
C[C@H]1C[C@H]2[C@@H]3CCC4=CC(=O)C=C[C@]4(C)[C@@]3(F)[C@@H](O)C[C@]2(C)[C@@]1(O)C(=O)CO [betamethasone]	cyt c (composite Z-score)	0.130
C[n+]1cccc(C(=O)[O-])c1 [trigonelline]	cyt c (composite Z-score)	−0.072
CNCCCC1c2ccccc2C=Cc2ccccc21 [protriptyline]	cyt c (composite Z-score)	−1.335

Okay, now this molecule:
Incoming: What does the data say about its cyt c (composite Z-score)? Entry: Cn1cc[nH]c1=S [methimazole]
Outgoing: −0.372

###

Reported MTT (composite Z-score) by item:
Tested on: cellular dehydrogenase activity
Conditions: Conc 20 μM; normalized score vs mock-treated (DMSO) wells
Please give the numeric answer without any surrounding text.

compound	outcome-measure	measured-result
CO[C@H]1C[C@H](O[C@H]2CC[C@]3(C=O)[C@H]4CC[C@]5(C)[C@@H](C6=CC(=O)OC6)CC[C@]5(O)[C@@H]4CC[C@]3(O)C2)O[C@H](C)[C@H]1O [cymarin]	MTT (composite Z-score)	−1.849

Incoming: Query: MTT (composite Z-score); subject: OC[C@@H](O)[C@@H](OC1O[C@H](CO)[C@@H](O)[C@H](O)[C@H]1O)[C@H](O)[C@@H](O)CO (some centres unmarked) [glucitol-4-gucopyanoside]
Outgoing: −0.795

Incoming: Queued: CC(=O)O[C@H]1C[C@@H](OC(C)=O)C(C)(C)[C@@H]2C[C@@H](OC(C)=O)[C@@]3(C)C4=CC(=O)O[C@@H](c5ccoc5)[C@]4(C)CC[C@@H]3[C@@]12C [deoxykhivorin]
Outgoing: −0.494

Incoming: And CC(C)c1ccc2c(c1)CCC1[C@](C)(CN)CCC[C@]21C.O=S(=O)(O)O (some centres unmarked) [18-aminoabieta-8,11,13-triene sulfate] ?
Outgoing: −0.762

Incoming: Another compound: CC12CCC(O)CC1CCc1ccccc12 (centres unmarked)
Outgoing: −0.574

Incoming: Okay, and O=C(O[C@@H]1Cc2c(O)cc(O)cc2O[C@@H]1c1cc(O)c(O)c(O)c1-c1c([C@H]2Oc3cc(O)cc(O)c3C[C@H]2O)cc(O)c(O)c1O)c1cc(O)c(O)c(O)c1 [2′,2′-bisepigallocatechin monogallate] ?
Outgoing: −1.318

###

System: cytochrome c
Type: cell-based, mouse
Conditions: composite Z-score vs mock-treated (DMSO) wells; Conc 20 μM
Classify by cyt c. Ranges: low range (below -0.7), mid range (-0.7 to below 0.2), high range (0.2 or more)

Solved entries:
compound	category-label
C=C1C2CC[C@@]3(C)[C@H](c4ccoc4)OC(=O)C[C@]13O[C@H]1CC(=O)C(C)(C)[C@H](C(O)C(=O)OC)[C@@]21C (stereo partly drawn) [6-hydroxyangolensic acid methyl ester]	high range
COc1cc2ccc(=O)oc2c2ccoc12	mid range
C=C(C)c1cc2cc(C(C)=O)c(O)cc2o1	high range
Cc1cc(=O)c2c(O)cc(O)c(C)c2o1	high range
CC1(C)C(=O)C=C[C@@]2(C)C1CC(=O)[C@@]1(C)C3=CC(=O)O[C@@H](c4ccoc4)[C@]3(C)CCC12 (stereo partly drawn)	mid range

Incoming: Band assignment needed for "COc1cc2c(cc1OC)[C@@H]1C(=O)c3ccc(OC)c(CC=C(C)C)c3O[C@@H]1CO2" please.
Outgoing: low range

###

# key: entry, value: ΔΨm
Test system: mitochondrial membrane potential
Format: cell-based, mouse
Settings: 20 μM; composite Z-score vs DMSO
No unit in the answer, please; the number alone is enough.

As a guide, the following entries are already answered.
compound	ΔΨm
CC(=O)Oc1c(C)c(C)c2c(c1C)CCC(C)(CCCC(C)CCCC(C)CCCC(C)C)O2 (stereo not drawn) [alpha-tochopheryl acetate]	−0.734
C=C1CC[C@H](O)C/C1=C/C=C1\CCC[C@]2(C)[C@@H]([C@H](C)/C=C/[C@H](C)C(C)C)CC[C@@H]12	−0.449
CC(C)C[C@H]1C(=O)N2CCC[C@H]2[C@]2(O)O[C@](NC(=O)[C@@H]3C=C4c5cccc6[nH]c(Br)c(c56)C[C@H]4N(C)C3)(C(C)C)C(=O)N12	0.037

Incoming: Find the recorded ΔΨm belonging to CC[C@@H](C(=O)[C@@H](C)[C@@H](O)[C@H](C)[C@@H]1O[C@@H]([C@@H](CC)C(=O)O)CC[C@@H]1C)[C@H]1O[C@]2(C=C[C@@H](O)[C@]3(CC[C@@](C)([C@H]4CC[C@](O)(CC)[C@H](C)O4)O3)O2)[C@H](C)C[C@@H]1C [salinomycin, reference compound] and report it.
Outgoing: 2.976

###

Known nucOX of a selection of molecules
System: nuOXPHOS transcripts
Type: cell-based, mouse
Settings: normalized composite Z-score vs mock-treated (DMSO) wells; Conc 20 μM
Give the figure by itself; no unit, no explanation.

Reference set (5 entries):
molecule	nucOX
C=C1CCC=C(C)C(=O)CC2C(C)CC12 (stereo not shown)	−0.076
COc1cc(OC)c2c(c1)O[C@H](c1ccc(OC)c(OC)c1)[C@@H](O)C2	−1.106
CC(C)C1COc2cc3oc(=O)ccc3cc2O1 (stereo not shown) [dihydro-obliquin]	0.192
Oc1cc(O)c2c(c1)O[C@H](c1ccc(O)c(O)c1)[C@H](O)C2 [epicatechin, reference compound]	−0.773
C/C1=C\CC/C(C)=C/CC(C)(C)/C=C/C1	−0.188

Incoming: Provide the documented nucOX with nuOXPHOS transcripts as the system for "CC(=O)Oc1ccc(/C=C/c2cc(OC(C)=O)cc(OC(C)=O)c2)cc1"
Outgoing: −1.858

Incoming: Can you handle CC1(C)C2CC(=O)[C@]3(C)C(CC[C@@]4(C)[C@H](c5ccoc5)OC(=O)[C@H]5O[C@]543)[C@@]2(C)C(=O)C[C@H]1O (stereo partly shown) next?
Outgoing: −0.866

Incoming: And "C[C@]12CC[C@H]3[C@@H](CC[C@]4(O)C[C@@H](O)CC[C@]34C(=O)O)[C@@]1(O)CC[C@@H]2C1=CC(=O)OC1" ?
Outgoing: −0.400

Incoming: Another: C[C@H](CCC(=O)O)[C@H]1CC[C@H]2[C@@H]3CCC4CCCC[C@]4(C)[C@H]3C=C[C@]12C (stereo partly shown)
Outgoing: −0.195

Incoming: Likewise for COc1cc2c(cc1OC)C1C(=O)c3c(cc4c(c3O)C=CC(C)(C)O4)OC1CO2 (stereo not drawn) [beta-toxicarol, reference compound] ?
Outgoing: −1.773

###

Test system: mtOXPHOS transcripts
Assay type: cell-based, mouse
Details: composite Z-score vs mock-treated (DMSO) wells; Conc 20 μM
Threshold check on mitoOX: strictly below -0.2 is MET; on or above -0.2 is NOT MET.

Look over these answered cases.
compound	subject-of-test	category-label
COC(=O)C[C@H]1C2(C)CC34OC5(C)O[C@@]6([C@H](OC(C)=O)C(OC(C)=O)[C@]7(C)C(/C(=C(/O)C(C)C)C(=O)O[C@H]7c7ccoc7)[C@@]6(O5)[C@H](OC(C)=O)[C@@]3(O)C2OC(=O)C(C)C)[C@]14C (some centres unmarked)	mtOXPHOS transcripts	NOT MET
C=C1[C@@H]([C@@]2(C)[C@@H](OC(C)=O)CC(=O)O[C@](C)(COC(C)=O)[C@@H]2C(=O)OC)[C@@H](OC=O)[C@H](OC(=O)[C@H](O)[C@H](C)CC)[C@@]2(C)[C@H](c3ccoc3)CC(=O)[C@]12O [Prieurianin, reference compound]	mtOXPHOS transcripts	NOT MET
COc1cc(-c2coc3cc(OC)c(OC)c(OC)c3c2=O)cc(OC)c1OC	mtOXPHOS transcripts	MET

Incoming: Strictly below -0.2 in mitoOX? COc1cc(OC)c2c(c1Cl)O[C@@]1(C(=O)CC(=O)C[C@H]1C)C2=O [griseofulvic acid, reference compound]
Outgoing: MET

Incoming: Lookup "COc1cc(-c2coc3cc(O[C@@H]4O[C@H](CO)[C@@H](O)[C@H](O)[C@H]4O)c(OC)c(O)c3c2=O)cc(O)c1OC"
Outgoing: MET
